target_or_test_system: Serine/threonine-protein kinase pim-3 (Homo sapiens) (UniProt Q86V86);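 further: mean inhibition of PIM3 kinase activity, recorded in the GSK_PKIS screening set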
condition_summary: at 0.1 µM

# molecule, inhibition
rows = [
    ("CC1=C(C(=O)Nc2ccc3[nH]ncc3c2)C(c2ccc(F)cc2)NC(=O)N1 (stereo unspecified)", "0.21%"),
    ("COc1ccc(COc2ccc(Cc3cnc(N)nc3N)cc2OC)cc1", "2.12%"),
    ("Nc1nc(-c2ccc3c(c2)C(=Cc2cc(Br)c(O)c(Br)c2)C(=O)N3)cs1", "5.73%"),
    ("CC(C)=Cc1cccc2c1/C(=N/Nc1ccc(S(N)(=O)=O)cc1)C(=O)N2", "1.74%"),
    ("COc1cccc(-n2ncc3c(N/N=C/c4cccc(F)c4)ncnc32)c1", "-0.58%"),
    ("Fc1cccc(COc2ccc(Nc3ncnc4sc(-c5cccs5)cc34)cc2Cl)c1", "0.47%"),
    ("Cc1ccc(C(=O)NC2CCCCC2)cc1-c1ccc(C(=O)NCC2CC2)cc1", "22.2%"),
    ("O=C(Nc1n[nH]c2nc(-c3ccco3)c(Br)cc12)C1CC1", "-1.42%"),
    ("Cc1nnc(-c2ccc(C)c(-c3ccc(C(=O)Nc4cccc(C#N)c4)cc3)c2)o1", "0.95%"),
    ("Nc1nc(-c2ccccn2)c(-c2ccc3ncccc3n2)s1", "0.6%"),
    ("CCn1c(-c2nonc2N)nc2c(C#CC(C)(C)O)nc(OC[C@@H](N)c3ccccc3)cc21", "0.56%"),
    ("COc1ccc2cc(-c3c(-c4ccncc4)nc(-c4ccc([S+](C)[O-])cc4)n3C)ccc2c1 (stereo unspecified)", "-1.77%"),
    ("CCn1c(-c2nonc2N)nc2cncc(C(=O)N3CC[C@H](N)C3)c21", "51.5%"),
    ("CC1=C(C(=O)Nc2ccc3[nH]ncc3c2)C(c2ccc(Cl)c(Cl)c2)CC(=O)N1 (stereo unspecified)", "-0.64%"),
    ("COc1cc2ncn(-c3cc(O[C@H](C)c4ccccc4Cl)c(C(N)=O)s3)c2cc1OC", "2.36%"),
    ("CCc1cccc(NC(=O)Nc2ccc(Oc3ccc4nc(NC(=O)OC)[nH]c4c3)cc2)c1", "1.1%"),
    ("COc1ccc(-c2nn3ncccc3c2-c2ccnc(Nc3ccc(Cl)c(C(F)(F)F)c3)n2)cc1", "1.02%"),
    ("O=C1NC(=O)C(c2ccc(Cl)cc2)=C1Nc1ccc(Cl)c(C(=O)O)c1", "0.19%"),
    ("N#Cc1c(NC(=O)c2cccc3ccccc23)sc2c1CCCC2", "-0.51%"),
    ("O=C1NC(=O)C(c2ccccc2Cl)=C1Nc1cccc(O)c1", "-0.32%"),
    ("CC1=C(C(=O)Nc2ccc3[nH]ncc3c2)C(c2ccc3ccccc3c2)CC(=O)N1 (stereo unspecified)", "-0.19%"),
]

Data origin, for the record: ChEMBL document CHEMBL1961873
